Data provenance is paper PMC10397247.

Target: T1, 4H3907-bN
T1 chain: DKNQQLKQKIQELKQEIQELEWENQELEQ
Assay: two-hybrid library CCNG1;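 also: natural log of median RNA to DNA barcode read ratio; higher means stronger binding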
Exercise: state measured interaction score for each of the binders provided.
Numbers only.

Would you please look over these solved cases?
INSERT INTO results (binder, data_value) VALUES
  ('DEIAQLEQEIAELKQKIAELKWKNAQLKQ [4H112-bA]', 1.94),
  ('DEIQQLEQKIQELKQENQELEWKNQELKQ [4H344-bN]', -2.07),
  ('DKNQQLKQEIQELEQENQELEWEIQELEQ [4H3601-bN]', -1.37);

Here's the next entry for you.
[Q] Can you share its interaction score? I mean this binder: DKNQQLKQEIQELEQEIQELEWKNQELKQ [4H3592-bN]
[A] -1.47
